experiment: Solubility of the compound in pH 7.4 PBS at 100 uM incubated for 10 mins under shaking condition by HPLC analysis; assay type: physicochemical
metricName: solubility at 10 min, 100 µM

Input: Find the recorded solubility at 10 min, 100 µM belonging to Cc1cc(C(=O)[O-])c2c(C(C)C)nn(-c3ccc(Cl)cc3)c2n1.[Na+] and report it.
Output: > 95 µM

Attention now shifts to the item below.
Input: Find the recorded solubility at 10 min, 100 µM belonging to Cc1cc(C(=O)O)c2c(C(C)C)nn(-c3ccc(Cl)cc3)c2n1 and report it.
Output: > 95 µM

====

experiment: Protein binding in rat plasma at 20 uM after 5 hrs by LC/MS/MS analysis; format: ADME, cell-free; conditions: read-out: PPB
metricName: fraction unbound at 5 h, 20 µM
When you answer, write just the number.

Input: Find the recorded fraction unbound at 5 h, 20 µM belonging to Cc1cc(C(=O)O)c2c(C(C)C)nn(-c3ccc(Cl)cc3)c2n1 and report it.
Output: 0.01
